# literature pull: Arachidonate 5-lipoxygenase-activating protein (Homo sapiens, UniProt P20292) IC50
Labelling field: enter t if recorded IC50 is less than 20 nM. Enter f if it equals or exceeds that cut-off.

Examples from the recorded data:
c1ccc(C2(c3cc(OCc4ccc5ccccc5n4)ccc3OCc3ccccn3)CC3CCC2C3)cc1 (stereo not drawn) = t
O=C(O)COc1cc(OCc2ccc3ccccc3n2)ccc1C1(c2ccccc2)CC2CCC1C2 (stereo not drawn) = f
CC[C@](O)(c1cn(Cc2ccc3c(-c4ccc(F)cc4)c(C(N)=O)sc3c2)nn1)C(F)(F)F = f
Cc1c(CC(C)(C)C(=O)O)n(Cc2ccc(Cl)cc2)c2ccc(-c3ccc(-c4ccccc4)c(F)c3)cc12 = f
CC1Cc2c(OCc3ccc4ccccc4n3)ccc3c2c(c(CC(C)(C)C(=O)O)n3Cc2ccc(Cl)cc2)S1 (stereo not drawn) = t
C=CCc1c(OCc2ccc3ccccc3n2)ccc2c1c(SC(C)(C)C)c(CC(C)(C)C(=O)O)n2Cc1ccc(Cl)cc1 = f
c1ccc(C2(c3cc(OCc4ccccn4)ccc3OCc3ccccn3)CC3CCC2C3)cc1 (stereo not drawn) = t

// switching to the query compound
Prompt: Would you kindly verify if IC50 of COC(=O)COc1ccc(C2(c3ccc(OCc4ccc5ccccc5n4)cc3)CC3CCC2C3)cc1 (stereo not drawn) is strictly less than 20 nM?
Response: f

###

- subject-of-test: UniProtKB P20292
- Sequence (P20292 whole entry): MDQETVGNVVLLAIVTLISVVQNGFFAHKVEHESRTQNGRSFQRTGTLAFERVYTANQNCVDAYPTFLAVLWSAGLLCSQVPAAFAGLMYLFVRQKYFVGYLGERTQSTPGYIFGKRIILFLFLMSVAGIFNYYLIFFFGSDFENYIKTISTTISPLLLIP
// compounds with reported pIC50 on UniProtKB P20292, multi-publication
Answers are plain numbers, as −log10 of the molar value.

CC(=O)Nc1ccc(O)cc1 = 4.36
COCCNc1cnc(-c2nc(C3(c4ccc(-c5cnc(N)nc5)nc4)CCC3)no2)cn1 = 8.49
c1ccc(C2(c3cc(OCc4ccc5ccccc5n4)ccc3OCc3ccc4ccccc4n3)CCCCC2)cc1 = 8.38
O=C(O)COc1ccc(OCc2ccc3ccccc3n2)c(C2(c3ccccc3)CC3CCC2C3)c1 (stereo not given) = 5.50

For each of the compounds below, state pIC50.
1. CC1Cc2c(OCc3ccc4ccccc4n3)ccc3c2c(c(COc2ccccc2CC(=O)O)n3Cc2ccc(Cl)cc2)S1 (stereo not given)
2. CC(C)(C)NC(=O)Cn1cc(-c2nc(C3(c4ccc(-c5cnc(N)nc5)nc4)CCC3)no2)cn1
3. CC(C)(C)Sc1c(CC(C)(C)C(=O)O)n(Cc2ccc(-c3cccnc3)cc2)c2ccc(OCc3ccccn3)cc12
4. Nc1ncc(-c2ccc(C3(c4noc(-c5ccc6[nH]ncc6c5)n4)CCC3)cn2)cn1
5. COC(=O)COc1ccc(OCc2ccc3ccccc3n2)cc1C1(c2ccccc2)CCCCC1

Response:
7.49
7.85
8.05
8.40
8.43
